Just for reference, PubChem BioAssay is where these values come from.

- measurement_protocol: inhibitors of TNFa-induced NFkB p65 translocation, primary screen, imaging, HUVEC, MLSMR starter and 10KST1 sets (AID 438);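 note: compound added about 3h40 before a 20 min TNFalpha stimulation; signal is the nuclear over cytoplasmic p65 intensity ratio per well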
- experimental_context: HUVEC TNFa-induced p65 nuclear translocation; at 2 µM, active compounds read high, 0% TNFa-plus-vehicle, 100% no-TNFa wells
Below, each entry is listed with its recorded inhibition.
Hi! Could you send only the number? It should be in %, unit omitted.

Please review the following examples before continuing.
compound	inhibition (%)
COc1ccc(Cl)c(NCCC(=O)O)c1	-4.2
Cc1ccc(CNC(=O)C2CCCN(S(=O)(=O)c3cnc[nH]3)C2)cc1 (stereo not drawn)	-11
O=C(CCN1C(=O)C2C3C=CC(C3)C2C1=O)NCCc1ccccc1Cl (stereo not drawn)	10.7

QUERY: So what does the record say about inhibition for CC1=C(C)[N+](=O)C2CCCCC2N1[O-] (stereo not drawn) ?
RESULT: 3.9

QUERY: So what does the record say about inhibition for O=C(c1ccc2nc(N3CCCCC3)sc2c1)N1CCN(c2ccccn2)CC1 ?
RESULT: -0.8

QUERY: So what does the record say about inhibition for CCOc1ccc(NC(=O)CSc2nccn2C)cc1 ?
RESULT: 15.3

QUERY: So what does the record say about inhibition for CCCCC(CC)CNC(=O)C1CCCN(S(=O)(=O)c2cnc[nH]2)C1 (stereo not drawn) ?
RESULT: 8.7

QUERY: So what does the record say about inhibition for CCCOc1ccccc1C1CC(=O)Nc2cc3c(cc21)OCCO3 (stereo not drawn) ?
RESULT: 4.9

QUERY: So what does the record say about inhibition for Cc1ccc(N=C2NC(=O)CS2)c(C)c1 ?
RESULT: 7.4

QUERY: So what does the record say about inhibition for COC(=O)c1ccc2c(c1)C(=O)N(C1CCCCC1)C2=O ?
RESULT: 2.1

QUERY: So what does the record say about inhibition for CCOC(=O)CSc1nc2cccnc2n1-c1ccc(F)cc1 ?
RESULT: -0.2

QUERY: So what does the record say about inhibition for CCOc1ccccc1NC(=O)CC1Nc2cc(C)c(C)cc2NC1=O (stereo not drawn) ?
RESULT: 1.8

QUERY: So what does the record say about inhibition for Cc1sc(NC(=O)CSc2nc(N)n(CC(=O)c3ccccc3)n2)c(C#N)c1C ?
RESULT: -0.8

QUERY: So what does the record say about inhibition for Cc1cccc(NC(=O)c2ccc3ccccc3n2)n1 ?
RESULT: -4.5

QUERY: So what does the record say about inhibition for COc1ccc(CCNC(=O)C2(C)CCC(=O)N2Cc2ccc3c(c2)OCO3)cc1OC (stereo not drawn) ?
RESULT: 0.6

----------
- measurement_protocol: TLR3 IRF3 reporter activation blockers – cell-based, poly I:C stimulus, luciferase, 10K MLSCN set, primary screen (AID 602277)
- experimental_context: HEK293-TLR3 RL24 IRF3 luciferase reporter, at 10 µM, active compounds read high
The label depends only on inhibition: rule met if it is at least 10%, rule not met if it is smaller.

Please review the following examples before continuing.
compound	category
O=C(Cn1nc(Cc2ccncc2)c2ccccc2c1=O)N1CCc2ccccc2C1	rule met
CCOC(=O)N1CCN(C(=O)CSc2nnc(Cc3ccccc3)o2)CC1	rule met
COc1ccc(S(=O)(=O)CCC(=O)O)cc1	rule met
CC(O)CN1C(=O)C(CC(=O)Nc2ccc(Cl)cc2)SC1=Nc1ccccc1 (stereo not drawn)	rule met
CCOC(=O)N1CCN(c2cc(=O)n(-c3ccccc3Cl)c(=O)[nH]2)CC1	rule met
O=C(c1ccco1)N1CCN(S(=O)(=O)c2ccc(Oc3ccccc3)cc2)CC1	rule not met

Please examine the following record next.
QUERY: Is reported inhibition greater than or equal to 10% here: Cc1cc(-n2c(C)cc(C(=O)CSc3nc4ccccc4c(=O)n3Cc3ccco3)c2C)no1
RESULT: rule not met
